targetEntity: κ-opioid receptor (KOR) (Homo sapiens)
experiment: Agonist stimulation of [35S]GTPγS binding, CHO-KOR membranes
Format: biochemical
recordedMetric: EC50

## Input Input CC(=O)N1CC[C@@H](NC(=O)[C@@H](N)Cc2c(C)cc(O)cc2C)c2cc(CC3CCc4ccccc43)ccc21 (mixture of isomers) [14g] , output reported EC50.
## Output > 1 µM

###

targetEntity: κ-opioid receptor (KOR) (Homo sapiens, UniProt P41145)
Sequence (P41145 whole entry): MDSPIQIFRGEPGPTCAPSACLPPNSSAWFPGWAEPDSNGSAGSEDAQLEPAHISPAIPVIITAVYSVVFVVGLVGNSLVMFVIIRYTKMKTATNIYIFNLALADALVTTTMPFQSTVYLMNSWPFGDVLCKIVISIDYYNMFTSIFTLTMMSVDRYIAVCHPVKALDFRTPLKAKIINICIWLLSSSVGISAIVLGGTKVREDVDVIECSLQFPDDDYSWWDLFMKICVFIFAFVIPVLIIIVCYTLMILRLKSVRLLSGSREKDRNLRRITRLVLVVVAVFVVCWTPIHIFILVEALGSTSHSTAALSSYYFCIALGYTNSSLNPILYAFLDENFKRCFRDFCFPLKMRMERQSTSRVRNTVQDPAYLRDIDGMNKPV
experiment: Agonist stimulation of [35S]GTPγS binding, CHO-KOR membranes
Format: biochemical
appliedConditions: [35S]GTPγS binding; mean (S.E.M.), n=3 (footnote d: n=2); dns: does not stimulate
recordedMetric: EC50 KOR

| compound | recordedMetric | valueMeasured |
| --- | --- | --- |
| CC(=O)N1CC[C@@H](NC(=O)[C@@H](N)Cc2c(C)cc(O)cc2C)c2cc(Cc3ccc4ccccc4c3)ccc21 [14a] | EC50 KOR | dns ^d |
| Cc1cc(O)cc(C)c1C[C@H](N)C(=O)N[C@@H]1CCCc2ccc(Cc3cccc4ccccc34)cc21 [14p] | EC50 KOR | dns ^d |
| CC(=O)N1CC[C@@H](NC(=O)[C@@H](N)Cc2c(C)cc(O)cc2C)c2cc(Cc3cccc4ccccc34)ccc21 [14d] | EC50 KOR | dns ^d |
| Cc1cc(O)cc(C)c1C[C@H](N)C(=O)N[C@@H]1CCCc2ccc(Cc3ccccc3)cc21 [14m] | EC50 KOR | dns |

## Input Input Cc1cc(O)cc(C)c1C[C@H](N)C(=O)N[C@@H]1CCCc2ccc(Cc3ccc4ccccc4c3)cc21 [14o] , output reported EC50 KOR.
## Output dns

###

targetEntity: δ-opioid receptor (DOR) (Rattus norvegicus, UniProt P33533)
Sequence (P33533 whole entry): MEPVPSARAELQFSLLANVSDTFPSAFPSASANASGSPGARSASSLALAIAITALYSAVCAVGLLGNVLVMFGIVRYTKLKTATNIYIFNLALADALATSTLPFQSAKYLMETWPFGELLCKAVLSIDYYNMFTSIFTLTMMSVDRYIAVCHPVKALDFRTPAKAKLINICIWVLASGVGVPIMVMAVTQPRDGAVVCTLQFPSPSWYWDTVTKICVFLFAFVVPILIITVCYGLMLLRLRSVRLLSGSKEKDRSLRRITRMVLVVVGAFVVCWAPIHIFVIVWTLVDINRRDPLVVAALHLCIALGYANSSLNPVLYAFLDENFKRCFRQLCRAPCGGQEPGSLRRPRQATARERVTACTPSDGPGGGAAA
experiment: Agonist stimulation of [35S]GTPγS binding, C6-DOR membranes
Format: biochemical
appliedConditions: percent maximal stimulation relative to DPDPE at 10 µM; dns: does not stimulate
recordedMetric: % stimulation DOR

| molecule | % stimulation DOR |
| --- | --- |
| CC(=O)N1CC[C@@H](NC(=O)[C@@H](N)Cc2c(C)cc(O)cc2C)c2cc(CC3CCc4ccccc43)ccc21 (mixture of isomers) [14g] | dns |
| Cc1cc(O)cc(C)c1C[C@H](N)C(=O)N[C@@H]1CCCc2ccc(Cc3ccccc3)cc21 [14m] | dns |
| CC(=O)N1CC[C@@H](NC(=O)[C@@H](N)Cc2c(C)cc(O)cc2C)c2cc(Cc3ccccc3)ccc21 [14e] | 26 (3) % |
| Cc1cc(O)cc(C)c1C[C@H](N)C(=O)N[C@@H]1CCCc2ccc(Cc3cccc4ccccc34)cc21 [14p] | dns |
| CC(=O)N1CC[C@@H](NC(=O)[C@@H](N)Cc2c(C)cc(O)cc2C)c2cc(Cc3cccc4ccccc34)ccc21 [14d] | dns |
| CC(=O)N1CC[C@@H](NC(=O)[C@@H](N)Cc2c(C)cc(O)cc2C)c2cc(CC3CCCCC3)ccc21 [14c] | 26 (5) % |

Could you now look at the following molecule, please?
## Input Input Cc1cc(O)cc(C)c1C[C@H](N)C(=O)N[C@@H]1CCCc2ccc(Cc3ccc4ccccc4c3)cc21 [14o] , output reported % stimulation DOR.
## Output dns
